Source: patent US20140155376A1

# STUDY SYSTEM: JAK3 (recombinant human kinase domain; h-jak3(810-1124)) (Homo sapiens, UniProt P52333)
# Construct: h-jak3(810- 1124)-sf9-c; made in house; host or cells: Sf9 insect cells
# Sequence (P52333 810-1124): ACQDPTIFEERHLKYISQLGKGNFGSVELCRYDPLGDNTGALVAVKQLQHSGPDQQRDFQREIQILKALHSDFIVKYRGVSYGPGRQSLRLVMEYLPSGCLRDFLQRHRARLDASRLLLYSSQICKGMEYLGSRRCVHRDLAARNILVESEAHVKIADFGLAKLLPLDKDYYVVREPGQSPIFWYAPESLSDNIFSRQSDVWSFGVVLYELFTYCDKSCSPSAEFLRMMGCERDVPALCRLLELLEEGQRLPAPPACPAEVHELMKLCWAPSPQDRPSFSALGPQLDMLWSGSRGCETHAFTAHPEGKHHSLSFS
# EXPERIMENT SUMMARY: Determination of IC50 of Janus Kinase (JAK) inhibition: JAK3, radioactive end-point assay with 33P-ATP
# Assay type: biochemical
# EXPERIMENTAL CONTEXT: JAK3 kinase domain; ATP 1.5 uM, peptide 50 uM, 20 minutes, room temperature, 10% DMSO; read-out: Ic50 h-jak3(810-1124)-sf9-c:no additive
pIC50: −log10 of the molar value.
ASSAY READOUT: pIC50

{"MOLECULAR STRING": "C[C@@H](NC(=O)c1c[nH]c2ncc(-c3nccs3)nc12)C(C)(C)O", "ASSAY READOUT": "pIC50", "OBS VALUE": 6.56}
{"MOLECULAR STRING": "C[C@H](NC(=O)c1c[nH]c2ncc(-c3ccc(C(=O)NCC(C)(C)C)s3)nc12)C(C)(C)C", "ASSAY READOUT": "pIC50", "OBS VALUE": 9.15}
{"MOLECULAR STRING": "C[C@H](NC(=O)c1c[nH]c2ncc(Oc3ccc(F)cc3F)nc12)C(C)(C)C", "ASSAY READOUT": "pIC50", "OBS VALUE": 6.81}
{"MOLECULAR STRING": "CCNC(=O)c1c[nH]c2ncc(Oc3cccc4c3CCCC4)nc12", "ASSAY READOUT": "pIC50", "OBS VALUE": 5.17}
{"MOLECULAR STRING": "CC(C)[C@H](C)NC(=O)c1c[nH]c2ncc(Oc3ccccc3)nc12", "ASSAY READOUT": "pIC50", "OBS VALUE": 7.20}
{"MOLECULAR STRING": "O=C(N[C@@H](CC1CCCCC1)[C@@H](O)[C@@H](O)C1CC1)c1c[nH]c2ncc(C3CC3)nc12", "ASSAY READOUT": "pIC50", "OBS VALUE": 5.85}
{"MOLECULAR STRING": "Cc1ccc([C@@H](C)NC(=O)c2ccc(-c3cnc4[nH]cc(C(=O)N[C@@H](C)C(C)(C)C)c4n3)s2)cc1", "ASSAY READOUT": "pIC50", "OBS VALUE": 9.28}
{"MOLECULAR STRING": "CCNC(=O)c1c[nH]c2ncc(Oc3ccc(C#N)cc3)nc12", "ASSAY READOUT": "pIC50", "OBS VALUE": 5.63}

* * *

# STUDY SYSTEM: JAK3 (recombinant human kinase domain; h-jak3(810-1124)) (Homo sapiens, UniProt P52333)
# Construct: h-jak3(810- 1124)-sf9-c; made in house; host or cells: Sf9 insect cells
# EXPERIMENT SUMMARY: Determination of IC50 of Janus Kinase (JAK) inhibition: JAK3, radioactive end-point assay with 33P-ATP
# Format: biochemical
# EXPERIMENTAL CONTEXT: JAK3 kinase domain; ATP 1.5 uM, peptide 50 uM, 20 minutes, room temperature, 10% DMSO; read-out: Ic50 h-jak3(810-1124)-sf9-c:no additive
Binary call on IC50 with cut-off 100 nM: strictly below means 1, and equality or higher means -1.

{"COMPOUND": "C[C@H](NC(=O)c1c[nH]c2ncc(-c3ccc(C(=O)NCc4ccc(F)cc4)s3)nc12)C(C)(C)C", "CLASS ASSIGNMENT": 1}
{"COMPOUND": "CS(=O)(=O)N1CCCC(CNC(=O)c2c[nH]c3ncc(C4CC4)nc23)C1 (stereo not drawn)", "CLASS ASSIGNMENT": -1}
{"COMPOUND": "CC(=O)N[C@@H]1CCc2ccc(Oc3cnc4[nH]cc(C(=O)NC(C)C#N)c4n3)cc21 (stereo partly drawn)", "CLASS ASSIGNMENT": -1}
{"COMPOUND": "CCNC(=O)c1c[nH]c2ncc(Oc3cccc(OC)c3)nc12", "CLASS ASSIGNMENT": -1}
{"COMPOUND": "C[C@H](NC(=O)c1c[nH]c2ncc(-c3ccc(C(=O)N4CC5(COC5)C4)s3)nc12)C(C)(C)C", "CLASS ASSIGNMENT": 1}
{"COMPOUND": "CC(C)[C@H](C)NC(=O)c1c[nH]c2ncc(C3CC3)nc12", "CLASS ASSIGNMENT": 1}
{"COMPOUND": "O=C(NC(C1CC1)C1CC1)c1c[nH]c2ncc(C3CC3)nc12", "CLASS ASSIGNMENT": 1}
{"COMPOUND": "CC(CO)CNC(=O)c1c[nH]c2ncc(C3CC3)nc12 (stereo not drawn)", "CLASS ASSIGNMENT": -1}
{"COMPOUND": "CC(C)NC(=O)c1c[nH]c2ncc(Oc3ccc4c(c3)CCCC4)nc12", "CLASS ASSIGNMENT": -1}
{"COMPOUND": "C[C@H](NC(=O)c1c[nH]c2ncc(C3CC3)nc12)c1cc[nH]n1", "CLASS ASSIGNMENT": 1}
{"COMPOUND": "CCN(CC)C(=O)c1ccc(-c2cnc3[nH]cc(C(=O)N[C@@H](C)C(C)(C)C)c3n2)s1", "CLASS ASSIGNMENT": 1}
{"COMPOUND": "CCNC(=O)c1c[nH]c2ncc(Oc3ccc4ccccc4c3)nc12", "CLASS ASSIGNMENT": -1}
{"COMPOUND": "CC(C)NC(=O)c1c[nH]c2ncc(Oc3ccc4c(c3)[C@H](NS(C)(=O)=O)CC4)nc12", "CLASS ASSIGNMENT": -1}
{"COMPOUND": "CC(C)NC(=O)c1c[nH]c2ncc(Oc3ccc4c(c3)[C@H](NC(=O)c3ccccc3)CC4)nc12", "CLASS ASSIGNMENT": -1}
{"COMPOUND": "CCNC(=O)c1c[nH]c2ncc(Oc3ccccc3)nc12", "CLASS ASSIGNMENT": -1}
{"COMPOUND": "CC(C)C(C#N)NC(=O)c1c[nH]c2ncc(C3CC3)nc12 (stereo not drawn)", "CLASS ASSIGNMENT": 1}
{"COMPOUND": "C[C@H](NC(=O)c1c[nH]c2ncc(-c3ccc(C(=O)N4CC(C(N)=O)C4)s3)nc12)C(C)(C)C", "CLASS ASSIGNMENT": 1}
{"COMPOUND": "COc1cccc(Oc2cnc3[nH]cc(C(=O)NC(C)C)c3n2)c1", "CLASS ASSIGNMENT": -1}
{"COMPOUND": "CC(C)NC(=O)c1c[nH]c2ncc(Oc3ccc4c(c3)[C@H](O)CC4)nc12", "CLASS ASSIGNMENT": -1}
{"COMPOUND": "C#CCNC(=O)c1ccc(-c2cnc3[nH]cc(C(=O)N[C@@H](C)C(C)(C)C)c3n2)s1", "CLASS ASSIGNMENT": 1}
{"COMPOUND": "C[C@H](NC(=O)c1c[nH]c2ncc(Oc3ccccc3)nc12)C(C)(C)C", "CLASS ASSIGNMENT": 1}
{"COMPOUND": "CC(C)[C@@H](C)NC(=O)c1c[nH]c2ncc(Oc3ccc(F)cc3F)nc12", "CLASS ASSIGNMENT": -1}
{"COMPOUND": "CC(=O)N1CCCC(CNC(=O)c2c[nH]c3ncc(C4CC4)nc23)C1 (stereo not drawn)", "CLASS ASSIGNMENT": -1}
{"COMPOUND": "CC(Cc1ccccn1)NC(=O)c1ccc(-c2cnc3[nH]cc(C(=O)N[C@@H](C)C(C)(C)C)c3n2)s1 (stereo partly drawn)", "CLASS ASSIGNMENT": 1}
{"COMPOUND": "CCNC(=O)c1c[nH]c2ncc(Oc3cccc(Cl)c3)nc12", "CLASS ASSIGNMENT": -1}
{"COMPOUND": "CS(=O)(=O)N1CCC(CNC(=O)c2c[nH]c3ncc(C4CC4)nc23)C1 (stereo not drawn)", "CLASS ASSIGNMENT": -1}
{"COMPOUND": "CC(=O)N1CCC(CNC(=O)c2c[nH]c3ncc(C4CC4)nc23)C1 (stereo not drawn)", "CLASS ASSIGNMENT": -1}
{"COMPOUND": "CC(O)CC(C)(C)NC(=O)c1c[nH]c2ncc(C3CC3)nc12 (stereo not drawn)", "CLASS ASSIGNMENT": -1}
{"COMPOUND": "Cc1cc(C)nc(Oc2cnc3[nH]cc(C(=O)NC(C)C)c3n2)c1", "CLASS ASSIGNMENT": -1}
{"COMPOUND": "C[C@H](NC(=O)c1c[nH]c2ncc(-c3cnn(C)c3)nc12)C1CCCCC1", "CLASS ASSIGNMENT": 1}
{"COMPOUND": "C[C@H](NC(=O)c1c[nH]c2ncc(-c3cn(-c4cccc(C(C)(C)C)c4)cn3)nc12)C(C)(C)C", "CLASS ASSIGNMENT": 1}
{"COMPOUND": "C[C@@H](NC(=O)c1c[nH]c2ncc(Oc3ccccc3)nc12)C(C)(C)C", "CLASS ASSIGNMENT": -1}
{"COMPOUND": "CCNC(=O)c1c[nH]c2ncc(Oc3cccc(OC(F)(F)F)c3)nc12", "CLASS ASSIGNMENT": -1}
